Values from patent US20240166629A1

- target_entity: human STING variant H232R (WT) (Homo sapiens, UniProt Q86WV6, H232R)
- Sequence (Q86WV6 whole entry H232R): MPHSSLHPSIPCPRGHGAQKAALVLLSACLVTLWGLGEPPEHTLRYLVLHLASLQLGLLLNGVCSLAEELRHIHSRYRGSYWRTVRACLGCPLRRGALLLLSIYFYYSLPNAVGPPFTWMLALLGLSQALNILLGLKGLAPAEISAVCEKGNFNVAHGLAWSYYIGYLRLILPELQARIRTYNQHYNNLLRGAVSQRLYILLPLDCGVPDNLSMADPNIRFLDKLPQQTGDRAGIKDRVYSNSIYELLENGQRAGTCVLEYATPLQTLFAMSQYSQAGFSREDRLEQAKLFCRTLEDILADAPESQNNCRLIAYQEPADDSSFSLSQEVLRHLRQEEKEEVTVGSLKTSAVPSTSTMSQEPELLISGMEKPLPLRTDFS
- assay: THP1-Blue ISG IRF-inducible SEAP reporter assay, STING H232R-variant
- reported_conditions: THP1-Blue ISG hSTING KO cells expressing STING H232R; 24 hours incubation
Field: EC50. Provide a value for each of the compounds that follow.
Lab note: write values as number then unit, every time.

Lab book: EC50 of Cc1cc(F)cc2c(-c3cccc4nn(C)cc34)nn(-c3ccc(N4CCS(=O)(=O)CC4)nc3)c12 [Example #1] noted as 800 nM

Lab book: EC50 of Cc1c(F)ccc2c(-c3cccc4nn(C)cc34)nn(-c3ccc(N4CCC(C(=O)O)CC4)nc3)c12 [compound 7] noted as 200 nM

Lab book: EC50 of Cc1c(Cl)c(F)cc2c(-c3cccc4nn(C)cc34)nn(-c3ccc(N4CCC(C(=O)O)CC4)nc3)c12 [compound 12] noted as 300 nM

Lab book: EC50 of Cc1c(Cl)ccc2c(-c3cccc4nn(C)cc34)nn(-c3ccc(N4C[C@@H]5[C@H](C4)[C@H]5C(=O)O)nc3)c12 [compound 8] noted as 100 nM
